Source of measurements: patent US12569502B2

target_of_assay: GPR39 receptors on m39-20 cell lines (Mus musculus, UniProt Q5U431, T447P)
Construct: P2A-mCherry (C); expressed in transfected cells
test_protocol: FLIPR calcium imaging on m39-20 cell lines stably expressing murine-derived GPR39
Assay type: cell-based
run_conditions: activation efficacy, m39-20 cells, no zinc ions
Quick list: Only bile acid Efficacy per entry.
Quick reminder: number only, in %, skip the unit.

Observe how each entry below is paired with its result.
C[C@H](CCC(=O)O)[C@H]1CC[C@H]2[C@@H]3[C@@H](O)C[C@@H]4C[C@H](O)CC[C@]4(C)[C@H]3CC[C@]12C [UDCA, Ursodeoxycholic acid]    0
C[C@H](CCC(=O)NCCS(=O)(=O)O)[C@H]1CC[C@H]2[C@@H]3CC[C@@H]4C[C@H](O)CC[C@]4(C)[C@H]3CC[C@]12C [TLCA]    47.8
C[C@H](CCC(=O)O)[C@H]1CC[C@H]2[C@@H]3CC[C@@H]4C[C@H](O)CC[C@]4(C)[C@H]3CC[C@]12C [LCA, Lithocholic acid]    0

### Prompt Given C[C@H](CCC(=O)NCC(=O)O)[C@H]1CC[C@H]2[C@@H]3CC[C@@H]4C[C@H](O)CC[C@]4(C)[C@H]3C[C@H](O)[C@]12C [GDCA] , state its recorded Only bile acid Efficacy.
### Response 7.7

### Prompt // Only bile acid Efficacy lookup, key: C[C@H](CCC(=O)O)[C@H]1CC[C@H]2[C@@H]3CC[C@@H]4C[C@H](O)CC[C@]4(C)[C@H]3C[C@H](O)[C@]12C [DCA, Deoxycholic acid]
### Response 0

### Prompt Fill in the blank: the reported Only bile acid Efficacy of C[C@H](CCC(=O)O)[C@H]1CC[C@H]2[C@@H]3[C@H](O)C[C@@H]4C[C@H](O)CC[C@]4(C)[C@H]3C[C@H](O)[C@]12C [CA, Cholic acid] is ____.
### Response 0

----------
target_of_assay: GPR39 receptors on m39-20 cell lines (Mus musculus, UniProt Q5U431, T447P)
Construct: P2A-mCherry (C); expressed in transfected cells
test_protocol: FLIPR calcium imaging on m39-20 cell lines stably expressing murine-derived GPR39
Type: cell-based
run_conditions: m39-20 cells, zinc ions 0.1 μM; read-out: EC50
metric_name: EC50 (µM)
Use µM as the unit, but write only the number.

### Prompt Any idea what EC50 was measured for C[C@H](CCC(=O)O)[C@H]1CC[C@H]2[C@@H]3CC[C@@H]4C[C@H](OS(=O)(=O)O)CC[C@]4(C)[C@H]3CC[C@]12C [LCAS] ?
### Response 30.6

----------
target_of_assay: GPR39 receptors on m39-20 cell lines (Mus musculus, UniProt Q5U431, T447P)
Construct: P2A-mCherry (C); expressed in transfected cells
test_protocol: FLIPR calcium imaging on m39-20 cell lines stably expressing murine-derived GPR39
Assay type: cell-based
run_conditions: m39-20 cells, zinc ions 2 μM; read-out: EC50
metric_name: EC50 (nM)
The response must be a number in nM with no trailing unit.

### Prompt Given C[C@H](CCC(=O)O)[C@H]1CC[C@H]2[C@@H]3CC[C@@H]4C[C@H](OS(=O)(=O)O)CC[C@]4(C)[C@H]3CC[C@]12C , state its recorded EC50.
### Response 1900

----------
target_of_assay: human GPR39 receptors on human GPR39-2 cell lines (Homo sapiens)
Construct: P2A-mCherry (C)
Sequence (O43194 1-453): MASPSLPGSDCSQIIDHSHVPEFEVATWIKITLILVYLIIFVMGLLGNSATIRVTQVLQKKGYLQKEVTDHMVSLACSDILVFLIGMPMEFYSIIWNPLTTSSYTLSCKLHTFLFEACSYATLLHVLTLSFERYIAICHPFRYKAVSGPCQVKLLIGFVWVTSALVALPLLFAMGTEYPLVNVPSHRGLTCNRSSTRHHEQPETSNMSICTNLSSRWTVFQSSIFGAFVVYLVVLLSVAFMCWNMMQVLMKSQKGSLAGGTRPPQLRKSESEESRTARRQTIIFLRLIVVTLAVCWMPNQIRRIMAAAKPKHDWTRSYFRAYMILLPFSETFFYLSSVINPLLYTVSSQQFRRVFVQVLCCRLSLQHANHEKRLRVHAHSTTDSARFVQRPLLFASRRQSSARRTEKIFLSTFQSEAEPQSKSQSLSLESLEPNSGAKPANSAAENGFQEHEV
test_protocol: FLIPR calcium imaging on human GPR39-2 cell line stably expressing human GPR39
Type: cell-based
run_conditions: read-out: EC50 Agonist + 4 μM zinc ions; human GPR39-2 cells, 4 μM zinc ions
metric_name: pEC50
# pEC50 = -log10(concentration in molar units)

### Prompt Return reported pEC50; argument: C[C@H](CCC(=O)NCCS(=O)(=O)[O-])[C@H]1CC[C@H]2[C@@H]3CC[C@@H]4C[C@H](OS(=O)(=O)[O-])CC[C@]4(C)[C@H]3CC[C@]12C.[Na+].[Na+] [TLCAS]
### Response 5.02

----------
target_of_assay: GPR39 receptors on m39-20 cell lines (Mus musculus, UniProt Q5U431, T447P)
Construct: P2A-mCherry (C); expressed in transfected cells
test_protocol: FLIPR calcium imaging on m39-20 cell lines stably expressing murine-derived GPR39
Type: cell-based
run_conditions: Bile acid + 4 μM zinc ions EC50, m39-20 cells, 4 μM zinc ions
Classify: TRUE when EC50 is strictly less than 50 µM; FALSE when EC50 is not.

C[C@H](CCC(=O)O)[C@H]1CC[C@H]2[C@@H]3CC[C@@H]4C[C@H](O)CC[C@]4(C)[C@H]3CC[C@]12C [LCA, Lithocholic acid]    FALSE

### Prompt Determine whether this compound shows EC50 lower than 50 µM (ties excluded): C[C@H](CCC(=O)O)[C@H]1CC[C@H]2[C@@H]3CC[C@@H]4C[C@H](OS(=O)(=O)O)CC[C@]4(C)[C@H]3CC[C@]12C [LCAS]
### Response TRUE

### Prompt Quick check: does C[C@H](CCC(=O)NCCS(=O)(=O)O)[C@H]1CC[C@H]2[C@@H]3CC[C@@H]4C[C@H](O)CC[C@]4(C)[C@H]3CC[C@]12C [TLCA] have EC50 under 50 µM?
### Response TRUE

----------
target_of_assay: GPR39 receptors on m39-20 cell lines (Mus musculus, UniProt Q5U431, T447P)
Construct: P2A-mCherry (C); expressed in transfected cells
Sequence (Q5U431 1-456 T447P): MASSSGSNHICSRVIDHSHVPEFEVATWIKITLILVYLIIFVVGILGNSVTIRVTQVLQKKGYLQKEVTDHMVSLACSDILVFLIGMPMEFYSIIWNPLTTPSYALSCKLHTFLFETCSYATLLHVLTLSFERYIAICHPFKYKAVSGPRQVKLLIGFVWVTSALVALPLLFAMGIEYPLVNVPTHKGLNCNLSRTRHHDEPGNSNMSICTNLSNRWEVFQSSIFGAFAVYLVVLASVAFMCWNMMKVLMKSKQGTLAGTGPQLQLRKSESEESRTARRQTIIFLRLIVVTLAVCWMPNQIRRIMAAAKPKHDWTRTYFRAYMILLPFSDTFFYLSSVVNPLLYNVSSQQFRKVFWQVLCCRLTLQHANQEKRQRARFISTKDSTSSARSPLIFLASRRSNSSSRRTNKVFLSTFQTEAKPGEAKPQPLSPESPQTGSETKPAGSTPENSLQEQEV
test_protocol: FLIPR calcium imaging on m39-20 cell lines stably expressing murine-derived GPR39
Assay type: cell-based
run_conditions: m39-20 cells, zinc ions 1 μM; read-out: EC50
metric_name: EC50 (µM)
API: value field is a number in µM; no unit string.

### Prompt GPR39 receptors on m39-20 cell lines (Mus musculus, UniProt Q5U431, T447P) / EC50 / C[C@H](CCC(=O)O)[C@H]1CC[C@H]2[C@@H]3CC[C@@H]4C[C@H](OS(=O)(=O)O)CC[C@]4(C)[C@H]3CC[C@]12C : value?
### Response 6.4

----------
target_of_assay: murine-derived wild-type (WT) GPR39 (Mus musculus)
Construct: 3HA (N); P2A-mCherry (C); expressed in transfected cells; host or cells: HEK293T, transient (Lipofectamine 3000)
Sequence (Q5U431 1-456): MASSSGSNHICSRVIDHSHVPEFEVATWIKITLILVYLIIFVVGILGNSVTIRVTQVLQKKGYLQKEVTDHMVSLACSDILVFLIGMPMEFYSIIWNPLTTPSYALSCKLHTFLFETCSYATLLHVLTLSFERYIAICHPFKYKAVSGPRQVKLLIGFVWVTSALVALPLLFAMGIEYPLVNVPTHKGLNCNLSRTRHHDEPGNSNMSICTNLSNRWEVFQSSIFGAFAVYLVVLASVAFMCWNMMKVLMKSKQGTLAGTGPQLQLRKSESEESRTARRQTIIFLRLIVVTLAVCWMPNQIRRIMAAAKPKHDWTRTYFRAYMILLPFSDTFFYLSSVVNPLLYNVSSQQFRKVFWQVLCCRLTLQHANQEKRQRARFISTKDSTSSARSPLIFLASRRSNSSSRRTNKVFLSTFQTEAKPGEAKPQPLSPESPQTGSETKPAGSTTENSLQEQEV
test_protocol: Calcium imaging on 293T cells transiently transfected with wild-type GPR39
Format: cell-based
run_conditions: transiently transfected HEK293T cells, + 4 μM zinc ions
metric_name: EC50 (µM)
// units = µM; emit number, no label

### Prompt Please report the recorded EC50 for C[C@H](CCC(=O)O)[C@H]1CC[C@H]2[C@@H]3CC[C@@H]4C[C@H](OS(=O)(=O)O)CC[C@]4(C)[C@H]3CC[C@]12C .
### Response 5.2
